In this section, each of the compounds is paired with its reported IC50.
# Test system: non-small cell lung cancer cell line H460
# procedure_details: In vitro human cancer cell line cytotoxicity (proliferation) assay in H460, CellTiter-Glo, 72 hours
# Format: cell-based
# condition: Homo sapiens, NCI-H460, 72 h, H460 cells, DMSO condition (no AKR1C3 inhibitor), read-out: CTG H460: Avg IC50 (nM) [Assay Condition: DMSO]

Solved entries:
{"columns": ["compound", "value_measured"],
 "data": [
  ["O=[N+]([O-])c1ccc2c(c1Oc1ccc3ncccc3c1)CC[C@@H]2OP(=O)(N1CC1)N1CC1", "< 10 nM"],
  ["Cc1ncn(-c2cccc(Oc3c([N+](=O)[O-])ccc4c3CC[C@@H]4OP(=O)(N3CC3)N3CC3)c2)n1", "< 10 nM"]
]}

Continue with the compound presented below.
Task: Look up IC50 for this compound: O=C(c1cccc(Oc2c([N+](=O)[O-])ccc3c2CCC3OP(=O)(N2CC2)N2CC2)c1)N1CCOCC1 (single isomer, unassigned)
Result: < 10 nM
